- Tested on: MS2 coat protein
- Protocol notes: apparent Kd, MS2 coat protein; higher = weaker binding; RNA-MaP array
- Setup conditions: designed as: ON switch for flavin mononucleotide; no ligand
Listed here are sequences together with their documented apparent Kd.
Property: apparent Kd (nM)

monomer_sequence=CUGUUACAUGAGGAUCACCCAUGUGAGCGGUUGCUAGGAUAUCGCCAUUGGUGGUUCGGACGAGAAGGAGCUAAAA property="apparent Kd" reading_unit=nM recorded_value=150
monomer_sequence=AUUAUGCAGUGAGAGGAUAUCAUCGAUAAGACAUGAGGAUCACCCAUGUGUGUCAGGGUUACACAUGAGAAGGCUCACCAAACUUU property="apparent Kd" reading_unit=nM recorded_value=7.28
monomer_sequence=CAUUUACAUGAGGAUCACCCAUGUUAGUAAUGCUGAGGAUAUGGUCCACGCUCCUAUUUACCAGAAGGCAGUCUUG property="apparent Kd" reading_unit=nM recorded_value=19.2
monomer_sequence=AUCGCGACCCAGAAGGGAAGUCGGUGAAGCGGUUCAGGAUAUGGGCAGAGGACAUGAGGAUCACCCAUGUGCAUGUAUUCGGCA property="apparent Kd" reading_unit=nM recorded_value=17.2
monomer_sequence=ACCAUCACAUGAGGAUCACCCAUGUAAAUAACUACAUAGACGGAGGAUAUCACAAUAACAGCGAAAGAGAAGGCCGGUGUAAAA property="apparent Kd" reading_unit=nM recorded_value=11.5
monomer_sequence=GAGCGACUAUGAGAUUGGACAUGAGGAUCACCCAUGUGAGACAGAAGGGCCUUGGCGCCCGUGAGGCAGGAUAUGUACCAAGCA property="apparent Kd" reading_unit=nM recorded_value=27.4
monomer_sequence=UAUGGACAUGAGGAUCACCCAUGUGGUAGAUGCUUAGGAUAUUAGACAGGAUACAUGUACUAAGAAGGAAGAUGGU property="apparent Kd" reading_unit=nM recorded_value=266
monomer_sequence=UCCAGCAACGAGAAGGUACACAUGAGGAUCACCCAUGUCCGUUGACCGUCUCCAUGGGCGAUGGGUAAGGAUAUCGGGCAGAUG property="apparent Kd" reading_unit=nM recorded_value=68.9
monomer_sequence=AUAAAUAAUUCAGGAUAUUGCGAUCAAACAACAUGAGGAUCACCCAUGUCCGUAAACACAACAAGCAAGAAGGGAAAGAAUCAA property="apparent Kd" reading_unit=nM recorded_value=24.6
monomer_sequence=GACAACCACAUGAGGAUCACCCAUGUUUACAUACACAAGGGAAGAAGGGAACCUAAAGGAUCAAAUCAGGAUAUUCGUAUUGUA property="apparent Kd" reading_unit=nM recorded_value=27
monomer_sequence=UAAAGGUUCCAGAAGGCCACGACUCGAUCCUGUGGAGGAUAUGGGACAUGAGGAUCACCCAUGUCUGGUGGAUUACAUCCCACA property="apparent Kd" reading_unit=nM recorded_value=20.4
monomer_sequence=AGCCGUUGGGAUAGACAUGAGGAUCACCCAUGUAAAAGCGAAGAGGAUAUCAGAAUUAAGACAACAGAGAAGGCAUAAAUACAA property="apparent Kd" reading_unit=nM recorded_value=38.1
monomer_sequence=UGGUGGAAGACAUGAGGAUCACCCAUGUUCGUAGAUGCCGAGCAGGAUAUUAGAUCAUAAACCAGUAAGAAGGGCUGAGUGUCU property="apparent Kd" reading_unit=nM recorded_value=31.8
monomer_sequence=GACAUGAGGAUCACCCAUGUAUGUGGGACUGCGCAUUGAUACUAGGAUAUCUGCCCAGACGUGUGAGAGAAGGAGUACGGUAAA property="apparent Kd" reading_unit=nM recorded_value=74.7
